# Study Target: FabX (Helicobacter pylori, UniProt O25465)
# Construct: gene HP_0773; recombinant from pQE2 vector in E. coli BL21(DE3) Rosetta, Ni-NTA, HiTrap-SP, Superdex75; FMN and [4Fe-4S] cofactors
# Sequence (O25465 1-363): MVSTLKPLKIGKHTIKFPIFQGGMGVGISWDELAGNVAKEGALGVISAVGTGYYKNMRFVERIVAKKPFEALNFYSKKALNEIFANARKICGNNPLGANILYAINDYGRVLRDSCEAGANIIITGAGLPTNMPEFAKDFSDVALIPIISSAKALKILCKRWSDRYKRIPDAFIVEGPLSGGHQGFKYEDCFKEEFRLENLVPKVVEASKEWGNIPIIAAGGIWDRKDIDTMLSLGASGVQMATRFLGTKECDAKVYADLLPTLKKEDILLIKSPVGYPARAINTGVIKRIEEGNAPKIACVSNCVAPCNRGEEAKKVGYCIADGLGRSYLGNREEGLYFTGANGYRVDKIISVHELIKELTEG
# Assay: biochemical
# Set-up: FabX-FabI enzyme-coupled assay, NADH consumption read-out of FabX inhibition
# Assay Setup: read-out: Inhibition (%) 10 μM
# Description: […]
Measurement Type: inhibition at 10 µM (%)
Give a bare numeral; the unit % is implied.

Data request: Write down the reported inhibition at 10 µM of COc1cccc(NS(=O)(=O)c2cccnc2Nc2ccc(Cl)cc2)c1 , test system: FabX (Helicobacter pylori, UniProt O25465).
Data returned: 21

Data request: Write down the reported inhibition at 10 µM of N#Cc1cccc(NS(=O)(=O)c2ccncc2Nc2ccc(Cl)cc2Cl)c1 [11a] , test system: FabX (Helicobacter pylori, UniProt O25465).
Data returned: 100

Data request: Write down the reported inhibition at 10 µM of O=S(=O)(Nc1ccc(F)nc1)c1cccnc1Nc1ccc(Cl)cc1 , test system: FabX (Helicobacter pylori, UniProt O25465).
Data returned: 12

Data request: Write down the reported inhibition at 10 µM of O=C(O)c1cccc(NS(=O)(=O)c2cccnc2Nc2ccc(Cl)cc2)c1 , test system: FabX (Helicobacter pylori, UniProt O25465).
Data returned: 65
